# target_entity: h5-HT5 receptor (Homo sapiens, UniProt P47898)
# Construct: expressed in transfected cells; host or cells: HEK293 cells (CHO cells obtained analogously), pcDNA3 plasmid, neomycin selection; membranes prepared
# Sequence (P47898 whole entry): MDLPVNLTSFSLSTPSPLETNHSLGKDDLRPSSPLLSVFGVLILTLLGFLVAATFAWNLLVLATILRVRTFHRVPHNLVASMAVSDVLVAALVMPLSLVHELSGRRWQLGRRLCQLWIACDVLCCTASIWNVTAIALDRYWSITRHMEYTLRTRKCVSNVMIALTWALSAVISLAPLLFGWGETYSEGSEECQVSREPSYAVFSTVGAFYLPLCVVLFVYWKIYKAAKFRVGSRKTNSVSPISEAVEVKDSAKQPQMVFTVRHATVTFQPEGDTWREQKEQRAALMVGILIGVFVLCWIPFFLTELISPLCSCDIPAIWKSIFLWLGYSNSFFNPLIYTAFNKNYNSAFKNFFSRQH
# experimental_protocol: [3H]-5-CT binding competition on h5-HT5 membranes
# condition_parameters: 2 nM [3H]-5-CT, 75 min at 30° C.; Ki=IC50/(1+C/Kd)
measurement_kind: pKi
Quick note: pKi values are minus log10 of concentrations in mol/L.

The reported pKi of the compound NCCc1c[nH]c2ccc(C(N)=O)cc12 [Compound 5-CT, 5-carboxamidotryptamine, reference compound] was 8.84

###

# target_entity: h5-HT5 receptor (Homo sapiens, UniProt P47898)
measurement_kind: Kd
Please answer using a numeric value trailed by its unit.

The reported Kd of the compound NCCc1c[nH]c2ccc(C(N)=O)cc12 [Compound 5-CT, 5-carboxamidotryptamine, reference compound] was 0.57 nM

###

# target_entity: h5-HT5 receptor (Homo sapiens)
# Construct: expressed in transfected cells; host or cells: HEK293 cells (CHO cells obtained analogously), pcDNA3 plasmid, neomycin selection; membranes prepared
# experimental_protocol: [3H]-5-CT binding competition on h5-HT5 membranes
Parameter pKi: see the listing below.
Quick note: pKi values are minus log10 of concentrations in mol/L.

Consider the reported pKi for these molecules:
Value (pKi, h5-HT5 receptor (Homo sapiens)) for record COc1ccc2cccc(N3CCN(CCn4cnc5sc6c(c5c4=O)CCN(C)C6)CC3)c2c1 = 6.63

Value (pKi, h5-HT5 receptor (Homo sapiens)) for record CCN1CCc2sc3ncn(CCN4CCN(c5cccc6ccccc56)CC4)c(=O)c3c2C1 = 6.91

Please find the next molecule below.
Value (pKi, h5-HT5 receptor (Homo sapiens)) for record CN1CCc2c(sc3ncn(CCN4CCN(c5cccc(C(F)(F)F)c5)CC4)c(=O)c23)C1 = 6.18
